For each record, write down the corresponding % degradation in 24 h when incubated with simulated gastric fluid.
- assay summary: Stability in simulated gastric fluid
- Format: in vitro ADME
- test conditions: 2 μM, 37° C., pH 1.5, 24 h
Where a SMILES comes first, the peptide text is derived from it. [ ]: non-standard residue; d: D form. ξ: configuration not given here. ξαMeBip(2'-Et,4'-OMe) = CCc1cc(OC)ccc1-c1ccc(CC(C)(N)C(=O)O)cc1; ξαMePhe(2,6-F2) = CC(N)(Cc1c(F)cccc1F)C(=O)O; ξhhPhe = NC(CCCc1ccccc1)C(=O)O; ξαMeD = CC(N)(CC(=O)O)C(=O)O; ξαMeS = CC(N)(CO)C(=O)O; Aib = CC(C)(N)C(=O)O
Numbers only, in %.

# molecule, unit symbol, result number
measured = [
    ("CCc1cc(OC)ccc1-c1ccc(CC(C)(NC(=O)[C@H](CC(=O)O)NC(=O)C(C)(CO)NC(=O)[C@@H](NC(=O)C(C)(Cc2c(F)cccc2F)NC(=O)[C@@H](NC(=O)CNC(=O)[C@H](CCC(N)=O)NC(=O)[C@H](C)NC(=O)[C@H](Cc2c[nH]cn2)NC(=O)[C@@H](N)C(C)C)[C@@H](C)O)[C@@H](C)O)C(=O)NC(CCCc2ccccc2)C(N)=O)cc1 (some centres unmarked) [compound 50] (H-VHAQGT[ξαMePhe(2,6-F2)]T[ξαMeS]D[ξαMeBip(2'-Et,4'-OMe)][ξhhPhe]-NH2)", "%", 100),
]

In the following, a different molecule is considered.
Query :: Retrieve % degradation in 24 h when incubated with simulated gastric fluid measured for CCc1cc(OC)ccc1-c1ccc(CC(C)(NC(=O)C(C)(CC(=O)O)NC(=O)[C@H](CO)NC(=O)[C@@H](NC(=O)C(C)(Cc2c(F)cccc2F)NC(=O)[C@@H](NC(=O)CNC(=O)[C@H](CCC(N)=O)NC(=O)C(C)(C)NC(=O)[C@H](Cc2c[nH]cn2)NC(=O)[C@@H](N)C(C)C)[C@@H](C)O)[C@@H](C)O)C(=O)NC(CCCc2ccccc2)C(N)=O)cc1 (some centres unmarked) [compound 75] (H-VH[Aib]QGT[ξαMePhe(2,6-F2)]TS[ξαMeD][ξαMeBip(2'-Et,4'-OMe)][ξhhPhe]-NH2) and print it.
Result :: 12

====

For each record, write down the corresponding % degradation in 24 h when incubated with simulated intestinal fluid.
- assay summary: Stability in simulated intestinal fluid
- Assay type: in vitro ADME
- test conditions: 2 μM, 37° C., pH 7.5, 24 h
Where a SMILES comes first, the peptide text is derived from it. [ ]: non-standard residue; d: D form. ξ: configuration not given here. ξαMeBip(2'-Et,4'-OMe) = CCc1cc(OC)ccc1-c1ccc(CC(C)(N)C(=O)O)cc1; ξαMePhe(2,6-F2) = CC(N)(Cc1c(F)cccc1F)C(=O)O; ξαMePhe(2-F) = CC(N)(Cc1ccccc1F)C(=O)O; ξhhPhe = NC(CCCc1ccccc1)C(=O)O; ξαMeD = CC(N)(CC(=O)O)C(=O)O; ξαMeP = CC1(C(=O)O)CCCN1
Give bare numbers, in %.

# compound, result number
measured = [
    ("CCc1cc(OC)ccc1-c1ccc(CC(C)(NC(=O)[C@H](CC(=O)O)NC(=O)[C@H](CO)NC(=O)[C@@H](NC(=O)C(C)(Cc2c(F)cccc2F)NC(=O)[C@@H](NC(=O)CNC(=O)[C@H](CCC(N)=O)NC(=O)C2(C)CCCN2C(=O)[C@H](Cc2c[nH]cn2)NC(=O)[C@@H](N)C(C)C)[C@@H](C)O)[C@@H](C)O)C(=O)NC(CCCc2ccccc2)C(N)=O)cc1 (some centres unmarked) [compound 28] (H-VH[ξαMeP]QGT[ξαMePhe(2,6-F2)]TSD[ξαMeBip(2'-Et,4'-OMe)][ξhhPhe]-NH2)", 40),
]

In the following, a different compound is considered.
Query :: Retrieve % degradation in 24 h when incubated with simulated intestinal fluid measured for CCc1cc(OC)ccc1-c1ccc(CC(C)(NC(=O)C(C)(CC(=O)O)NC(=O)[C@H](CO)NC(=O)[C@@H](NC(=O)C(C)(Cc2ccccc2F)NC(=O)[C@@H](NC(=O)CNC(=O)[C@H](CCC(=O)O)NC(=O)[C@H](CO)NC(=O)[C@H](Cc2c[nH]cn2)NC(=O)[C@@H](N)C(C)C)[C@@H](C)O)[C@@H](C)O)C(=O)NC(CCCc2ccccc2)C(N)=O)cc1 (some centres unmarked) [compound 69] (H-VHSEGT[ξαMePhe(2-F)]TS[ξαMeD][ξαMeBip(2'-Et,4'-OMe)][ξhhPhe]-NH2) and print it.
Result :: 43
